- TESTED_TARGET: Neuropeptide Y receptor type 1 (Homo sapiens, UniProt P25929); note: assay procedure not described here
- Sequence (P25929 whole entry): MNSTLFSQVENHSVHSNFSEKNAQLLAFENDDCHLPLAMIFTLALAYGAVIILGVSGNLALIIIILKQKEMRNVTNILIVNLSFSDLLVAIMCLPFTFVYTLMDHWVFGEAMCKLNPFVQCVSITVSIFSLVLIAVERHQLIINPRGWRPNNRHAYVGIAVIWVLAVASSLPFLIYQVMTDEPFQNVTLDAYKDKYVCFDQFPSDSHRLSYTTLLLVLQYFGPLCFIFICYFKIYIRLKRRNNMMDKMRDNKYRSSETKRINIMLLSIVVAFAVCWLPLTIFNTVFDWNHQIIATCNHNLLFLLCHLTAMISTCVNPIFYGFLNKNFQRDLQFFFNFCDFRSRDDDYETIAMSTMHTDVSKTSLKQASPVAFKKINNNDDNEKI
- CONDITION_LABEL: read-out: AC50
AC50: recorded values

COMPOUND: CC(=O)[C@@]1(O)CC[C@H]2[C@@H]3C=C(Cl)C4=CC(=O)[C@@H]5C[C@@H]5[C@]4(C)[C@H]3CC[C@@]21C [CYPROTERONE]
AC50: > 10 µM

COMPOUND: COc1ccc(-c2noc(CC(=O)O)c2-c2ccc(OC)cc2)cc1 [MOFEZOLAC]
AC50: > 30 µM

COMPOUND: CC(C)(C)C(=O)OCC(=O)[C@H]1CC[C@H]2[C@@H]3CCC4=CC(=O)CC[C@]4(C)[C@H]3CC[C@]12C [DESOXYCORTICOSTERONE PIVALATE]
AC50: > 10 µM

COMPOUND: COc1cc2nc(N3CCN(C(=O)C4CCCO4)CC3)nc(N)c2cc1OC (configuration not stated) [TERAZOSIN]
AC50: > 30 µM

COMPOUND: CC(=O)SC[C@@H](C)C(=O)N1CCC[C@H]1C(=O)N[C@@H](Cc1ccccc1)C(=O)O
AC50: > 30 µM

COMPOUND: COc1cc(N)c(Cl)cc1C(=O)NC1CCN(Cc2ccccc2)CC1 [CLEBOPRIDE]
AC50: > 30 µM

COMPOUND: CC(C)NCC(O)c1ccc(O)c(O)c1 (configuration not stated) [ISOPROTERENOL]
AC50: > 30 µM

COMPOUND: CCN1CCCC1CNC(=O)c1cc(S(=O)(=O)CC)c(N)cc1OC (configuration not stated) [AMISULPRIDE]
AC50: > 30 µM

COMPOUND: Oc1ccc2c(c1)CC[C@H](c1ccccc1)[C@@H]2c1ccc(OCCN2CCCC2)cc1 [LASOFOXIFENE]
AC50: 25 µM

COMPOUND: C[N@+]1(CCF)[C@@H]2CC[C@H]1C[C@@H](OC(=O)C(O)(c1ccccc1)c1ccccc1)C2
AC50: > 30 µM

COMPOUND: CCC(=O)O[C@]1(C(=O)SCF)[C@H](C)C[C@H]2[C@@H]3C[C@H](F)C4=CC(=O)C=C[C@]4(C)[C@@]3(F)[C@@H](O)C[C@@]21C [FLUTICASONE PROPIONATE]
AC50: > 30 µM

COMPOUND: Cc1cnc(C(=O)NCCc2ccc(S(=O)(=O)NC(=O)NC3CCCCC3)cc2)cn1 [GLIPIZIDE]
AC50: > 30 µM

COMPOUND: C=CCNc1nc(NCC=C)nc(N2CCN(C(c3ccc(F)cc3)c3ccc(F)cc3)CC2)n1 [ALMITRINE]
AC50: > 30 µM

COMPOUND: CC(C(=O)O)c1ccc2c(c1)[nH]c1ccc(Cl)cc12 (configuration not stated) [CARPROFEN]
AC50: > 10 µM

COMPOUND: CCCC(CCC)C(=O)O [VALPROIC ACID]
AC50: > 30 µM

COMPOUND: COc1ccc2nc3cc(Cl)ccc3c(Nc3cc(CN4CCCC4)c(O)c(CN4CCCC4)c3)c2n1 [PYRONARIDINE]
AC50: > 30 µM

COMPOUND: CCC(=O)O[C@H]1CC[C@H]2[C@@H]3CCC4=CC(=O)CC[C@]4(C)[C@H]3CC[C@]12C [TESTOSTERONE PROPIONATE]
AC50: > 10 µM

====

Reported AC50 for target or system Alpha-2A adrenergic receptor (Homo sapiens, UniProt P08913), by entry. Note: assay procedure not described here.

COMPOUND: COc1cc2nccc(Oc3ccc(NC(=O)C4(C(=O)Nc5ccc(F)cc5)CC4)cc3)c2cc1OC [CABOZANTINIB]
AC50: > 30 µM

COMPOUND: C[C@H](Cc1cc2c(c(C(N)=O)c1)N(CCCO)CC2)NCCOc1ccccc1OCC(F)(F)F
AC50: 6.2 µM

COMPOUND: Cc1cc(C(C)(C)C)cc(C)c1CC1=NCCN1
AC50: 0.005 µM

COMPOUND: COc1cc2nc(N3CCN(C(=O)C4CCCO4)CC3)nc(N)c2cc1OC (centres undefined)
AC50: 29 µM

====

- TESTED_TARGET: Prostaglandin G/H synthase 1 (Rattus norvegicus, UniProt Q63921); note: assay procedure not described here
- Sequence (Q63921 whole entry): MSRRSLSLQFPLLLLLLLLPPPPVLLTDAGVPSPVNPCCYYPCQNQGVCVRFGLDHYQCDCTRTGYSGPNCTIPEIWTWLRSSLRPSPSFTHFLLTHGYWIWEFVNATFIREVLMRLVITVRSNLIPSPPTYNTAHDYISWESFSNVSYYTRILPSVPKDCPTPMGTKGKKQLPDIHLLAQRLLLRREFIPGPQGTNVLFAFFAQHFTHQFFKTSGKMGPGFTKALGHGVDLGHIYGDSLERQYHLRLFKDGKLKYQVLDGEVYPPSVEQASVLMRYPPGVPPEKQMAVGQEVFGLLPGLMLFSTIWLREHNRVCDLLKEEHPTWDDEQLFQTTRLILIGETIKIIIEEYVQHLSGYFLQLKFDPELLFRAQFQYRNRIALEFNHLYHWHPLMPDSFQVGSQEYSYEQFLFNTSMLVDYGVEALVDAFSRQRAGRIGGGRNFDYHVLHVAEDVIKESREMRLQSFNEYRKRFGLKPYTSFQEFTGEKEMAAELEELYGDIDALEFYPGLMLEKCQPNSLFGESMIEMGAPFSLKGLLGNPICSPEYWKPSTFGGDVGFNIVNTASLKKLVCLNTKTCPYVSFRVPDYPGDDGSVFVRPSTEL
- Assay type: functional
Measured AC50, listed per entry for reference.
REPORTED_ENDPOINT: AC50

COMPOUND: Cn1cnc2c(F)c(Nc3ccc(Br)cc3Cl)c(C(=O)NOCCO)cc21
TESTED_TARGET: Prostaglandin G/H synthase 1 (Rattus norvegicus, UniProt Q63921); note: assay procedure not described here
REPORTED_ENDPOINT: AC50
OBSERVED_MEASUREMENT: > 30 µM
--
COMPOUND: OC[C@H]1O[C@@](CO)(O[C@H]2O[C@H](CO)[C@@H](O)[C@H](O)[C@H]2O)[C@@H](O)[C@@H]1O
TESTED_TARGET: Prostaglandin G/H synthase 1 (Rattus norvegicus, UniProt Q63921); note: assay procedure not described here
REPORTED_ENDPOINT: AC50
OBSERVED_MEASUREMENT: > 30 µM
--
COMPOUND: O=C1C(CC[S+]([O-])c2ccccc2)C(=O)N(c2ccccc2)N1c1ccccc1 (stereo unspecified)
TESTED_TARGET: Prostaglandin G/H synthase 1 (Rattus norvegicus, UniProt Q63921); note: assay procedure not described here
REPORTED_ENDPOINT: AC50
OBSERVED_MEASUREMENT: > 10 µM
--
COMPOUND: COc1cc(N)c(Cl)cc1C(=O)NC1CCN(Cc2ccccc2)CC1 [CLEBOPRIDE]
TESTED_TARGET: Prostaglandin G/H synthase 1 (Rattus norvegicus, UniProt Q63921); note: assay procedure not described here
REPORTED_ENDPOINT: AC50
OBSERVED_MEASUREMENT: 14 µM
--
COMPOUND: C[C@]12CCC(=O)C(O)=C1CC[C@@H]1[C@@H]2CC[C@]2(C)C(=O)CC[C@@H]12
TESTED_TARGET: Prostaglandin G/H synthase 1 (Rattus norvegicus, UniProt Q63921); note: assay procedure not described here
REPORTED_ENDPOINT: AC50
OBSERVED_MEASUREMENT: > 30 µM
--
COMPOUND: Cc1cccc(N2CC(CO)OC2=O)c1 (stereo unspecified)
TESTED_TARGET: Prostaglandin G/H synthase 1 (Rattus norvegicus, UniProt Q63921); note: assay procedure not described here
REPORTED_ENDPOINT: AC50
OBSERVED_MEASUREMENT: > 30 µM
--
COMPOUND: CCN(CC)C(=O)Nc1ccc(OCC(O)CNC(C)(C)C)c(C(C)=O)c1 (stereo unspecified)
TESTED_TARGET: Prostaglandin G/H synthase 1 (Rattus norvegicus, UniProt Q63921); note: assay procedure not described here
REPORTED_ENDPOINT: AC50
OBSERVED_MEASUREMENT: > 30 µM
--
COMPOUND: O=C1CN(/N=C/c2ccc(-c3ccc([N+](=O)[O-])cc3)o2)C(O)=N1
TESTED_TARGET: Prostaglandin G/H synthase 1 (Rattus norvegicus, UniProt Q63921); note: assay procedure not described here
REPORTED_ENDPOINT: AC50
OBSERVED_MEASUREMENT: > 10 µM
--
COMPOUND: C/C(=C\C(=O)OCCCCCCCCC(=O)O)C[C@@H]1OC[C@H](C[C@@H]2O[C@H]2[C@@H](C)[C@H](C)O)[C@@H](O)[C@H]1O
TESTED_TARGET: Prostaglandin G/H synthase 1 (Rattus norvegicus, UniProt Q63921); note: assay procedure not described here
REPORTED_ENDPOINT: AC50
OBSERVED_MEASUREMENT: > 10 µM
--
COMPOUND: COc1cc2nccc(Oc3ccc(NC(=O)C4(C(=O)Nc5ccc(F)cc5)CC4)cc3)c2cc1OC [CABOZANTINIB]
TESTED_TARGET: Prostaglandin G/H synthase 1 (Rattus norvegicus, UniProt Q63921); note: assay procedure not described here
REPORTED_ENDPOINT: AC50
OBSERVED_MEASUREMENT: > 30 µM
--
COMPOUND: CC(C)[C@H](N)C(=O)OCC(CO)OCn1cnc2c(=O)nc(N)[nH]c21 (stereo partly specified)
TESTED_TARGET: Prostaglandin G/H synthase 1 (Rattus norvegicus, UniProt Q63921); note: assay procedure not described here
REPORTED_ENDPOINT: AC50
OBSERVED_MEASUREMENT: > 30 µM
--
COMPOUND: COc1ccc2nc3cc(Cl)ccc3c(Nc3cc(CN4CCCC4)c(O)c(CN4CCCC4)c3)c2n1
TESTED_TARGET: Prostaglandin G/H synthase 1 (Rattus norvegicus, UniProt Q63921); note: assay procedure not described here
REPORTED_ENDPOINT: AC50
OBSERVED_MEASUREMENT: > 30 µM
--
COMPOUND: CC(C)(C)C(=O)OCC(=O)[C@H]1CC[C@H]2[C@@H]3CCC4=CC(=O)CC[C@]4(C)[C@H]3CC[C@]12C [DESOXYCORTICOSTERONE PIVALATE]
TESTED_TARGET: Prostaglandin G/H synthase 1 (Rattus norvegicus, UniProt Q63921); note: assay procedure not described here
REPORTED_ENDPOINT: AC50
OBSERVED_MEASUREMENT: > 10 µM
--
COMPOUND: CCN(CC)CCNC(=O)c1cc(S(C)(=O)=O)ccc1OC [TIAPRIDE]
TESTED_TARGET: Prostaglandin G/H synthase 1 (Rattus norvegicus, UniProt Q63921); note: assay procedure not described here
REPORTED_ENDPOINT: AC50
OBSERVED_MEASUREMENT: > 30 µM
--
COMPOUND: CC(N)C12CC3CC(CC(C3)C1)C2 (stereo unspecified)
TESTED_TARGET: Prostaglandin G/H synthase 1 (Rattus norvegicus, UniProt Q63921); note: assay procedure not described here
REPORTED_ENDPOINT: AC50
OBSERVED_MEASUREMENT: > 10 µM
--
COMPOUND: CCN1CCN(Cc2ccc(Nc3ncc(F)c(-c4cc(F)c5nc(C)n(C(C)C)c5c4)n3)nc2)CC1
TESTED_TARGET: Prostaglandin G/H synthase 1 (Rattus norvegicus, UniProt Q63921); note: assay procedure not described here
REPORTED_ENDPOINT: AC50
OBSERVED_MEASUREMENT: > 30 µM
